read-out: Cytochrome P450 3A4 (Homo sapiens); assay: LTEA_HepaRG_CYP3A4: Life Technologies and Expression Analysis (LTEA) Assay for CYP3A4 using HepaRG (AID 2283487); settings: mRNA level, 48 h; actives raise or lower the signal
Active and inactive are the calls of the source. How the source made its calls: active means hit-call score of the fitted dose curve at least 0.9, where 1 is the maximum; inactive means score below 0.9.
Possible outcomes: active, inactive

{"compound": "CCOCN(C(=O)CCl)c1c(C)cccc1CC", "labelClass": "inactive"}
{"compound": "CCC(C)(NC(=O)c1cc(Cl)c(C)c(Cl)c1)C(=O)CCl (centres undefined)", "labelClass": "active"}
{"compound": "O=S1OCC2C(CO1)C1(Cl)C(Cl)=C(Cl)C2(Cl)C1(Cl)Cl (centres undefined)", "labelClass": "active"}
{"compound": "O=C(NC(=O)c1c(F)cccc1F)Nc1ccc(OC(F)(F)C(F)OC(F)(F)F)c(Cl)c1 (centres undefined)", "labelClass": "inactive"}

====

read-out: Vascular endothelial growth factor receptor 2 (Homo sapiens); experiment: BSK_4H_VEGFRII: BioMAP Diversity Plus: 4H Assay for Vascular endothelial growth factor receptor 2 (VEGFR2) Biomarker Activity (AID 2283031); conditions: primary human endothelial cells (HUVEC); actives raise or lower the signal
The source made the active and inactive calls. The calls were made as follows: active = hit-call score of the fitted dose curve at least 0.9, where 1 is the maximum; inactive = score below 0.9.
Possible outcomes: active, inactive

{"compound": "CCC(C)(C)C(=O)OC1=C(c2ccc(Cl)cc2Cl)C(=O)OC12CCCCC2", "labelClass": "inactive"}
{"compound": "CNC(=O)Oc1cccc(N=CN(C)C)c1", "labelClass": "inactive"}
{"compound": "CCOCN(C(=O)CCl)c1c(C)cccc1CC", "labelClass": "inactive"}
{"compound": "CCC(C)Nc1c([N+](=O)[O-])cc(C(C)(C)C)cc1[N+](=O)[O-] (stereo unspecified)", "labelClass": "active"}
{"compound": "CCOC1Oc2ccc(OS(C)(=O)=O)cc2C1(C)C (stereo unspecified)", "labelClass": "inactive"}
{"compound": "C[C@H]1[C@H](c2ccc(Cl)cc2)SC(=O)N1C(=O)NC1CCCCC1", "labelClass": "inactive"}

====

target: Glucocorticoid receptor (Homo sapiens) (UniProt P04150); assay: NVS_NR_hGR: NovaScreen (NVS) Nuclear Receptor Binding Assay for human Glucocorticoid Receptor (GR) (AID 2283363)
Sequence (P04150 whole entry, looked up): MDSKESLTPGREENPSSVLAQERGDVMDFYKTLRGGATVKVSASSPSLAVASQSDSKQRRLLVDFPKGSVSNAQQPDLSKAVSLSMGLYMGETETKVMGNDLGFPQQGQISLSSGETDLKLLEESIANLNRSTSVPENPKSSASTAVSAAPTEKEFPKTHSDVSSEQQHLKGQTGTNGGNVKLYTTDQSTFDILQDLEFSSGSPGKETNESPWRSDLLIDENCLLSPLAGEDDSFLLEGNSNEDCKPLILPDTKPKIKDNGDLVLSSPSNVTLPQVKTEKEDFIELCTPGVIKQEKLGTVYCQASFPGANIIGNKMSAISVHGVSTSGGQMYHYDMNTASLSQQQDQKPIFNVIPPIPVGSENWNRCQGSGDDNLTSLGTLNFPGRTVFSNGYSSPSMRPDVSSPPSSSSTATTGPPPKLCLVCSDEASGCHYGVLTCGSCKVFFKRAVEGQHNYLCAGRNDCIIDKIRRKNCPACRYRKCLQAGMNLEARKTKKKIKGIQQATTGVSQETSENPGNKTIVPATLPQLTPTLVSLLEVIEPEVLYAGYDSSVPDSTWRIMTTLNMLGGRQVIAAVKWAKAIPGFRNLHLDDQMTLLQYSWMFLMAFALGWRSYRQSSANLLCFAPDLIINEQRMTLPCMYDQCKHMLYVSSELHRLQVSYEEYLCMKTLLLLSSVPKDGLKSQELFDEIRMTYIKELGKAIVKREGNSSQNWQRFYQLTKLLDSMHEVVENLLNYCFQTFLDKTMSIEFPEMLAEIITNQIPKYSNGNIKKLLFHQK
Results filed as inconclusive are left out. Calls of active or inactive are those of the source. The calls were made as follows: active = hit-call score of the fitted dose curve at least 0.9, where 1 is the maximum; inconclusive = response in the unintended direction; inactive = score below 0.9.
Possible outcomes: y = active, n = inactive

{"smilesRepresentation": "O=C(O)COc1ccc(Cl)cc1Cl", "labelClass": "n"}
{"smilesRepresentation": "CCOc1nc(NC)nc(NC(=O)NS(=O)(=O)c2ccccc2C(=O)OC)n1", "labelClass": "n"}
{"smilesRepresentation": "N#Cc1c(Cl)c(Cl)c(Cl)c(C#N)c1Cl", "labelClass": "y"}
{"smilesRepresentation": "O=[N+]([O-])/N=C1\\NCCN1Cc1ccc(Cl)nc1", "labelClass": "n"}
{"smilesRepresentation": "O=[N+]([O-])c1c(Cl)c(Cl)c(Cl)c(Cl)c1Cl", "labelClass": "n"}
{"smilesRepresentation": "COc1nn(CSP(=S)(OC)OC)c(=O)s1", "labelClass": "n"}
{"smilesRepresentation": "CCCN(CCOc1c(Cl)cc(Cl)cc1Cl)C(=O)n1ccnc1", "labelClass": "n"}

====

Examples of compounds with documented AC50 follow.
assay: CCTE_Shafer_MEA_dev_AB: CCTE's Alamar Blue Assay for Cytotoxicity in the Neural Network Formation Assay, Shafer Lab (AID 2284083);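 further: resazurin reduction fluorescence as viability of cultured neurons; twelve days of exposure from plating with re-dosing on DIV 5 and 9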
Records with an inconclusive call do not appear. The source made the active and inactive calls. Rule for the calls: active = hit-call score of the fitted dose curve at least 0.9, where 1 is the maximum; inconclusive = response in the unintended direction; inactive = score below 0.9.

{"compound": "O=S(=O)(O)C(F)(F)C(F)(F)C(F)(F)C(F)(F)C(F)(F)C(F)(F)C(F)(F)C(F)(F)F", "AC50": "50 µM (active)"}
{"compound": "O=S1OCC2C(CO1)C1(Cl)C(Cl)=C(Cl)C2(Cl)C1(Cl)Cl (centres undefined)", "AC50": "9.32 µM (active)"}
{"compound": "COP(=S)(OC)Oc1ccc([N+](=O)[O-])cc1", "AC50": "24.3 µM (active)"}

====

experiment: CEETOX_H295R_OHPROG: CeeTox H295R High-throughput Steroidogenesis Assay for OH-Progesterone (OHPROG) (AID 2283435); conditions: actives raise or lower the signal
Activity calls are given as the source filed them. Rule for the calls: active = hit-call score of the fitted dose curve at least 0.9, where 1 is the maximum; inactive = score below 0.9.
Possible outcomes: true (1) for active, false (0) for inactive

{"compound": "O=[N+]([O-])c1c(Cl)c(Cl)c(Cl)c(Cl)c1Cl", "labelClass": "false (0)"}
{"compound": "CC[C@H](C)[C@H]1O[C@]2(C=C[C@@H]1C)C[C@@H]1C[C@@H](C/C=C(\\C)[C@@H](O[C@H]3C[C@H](OC)[C@@H](O[C@H]4C[C@H](OC)[C@@H](O)[C@H](C)O4)[C@H](C)O3)[C@@H](C)/C=C/C=C3\\CO[C@@H]4[C@H](O)C(C)=C[C@@H](C(=O)O1)[C@]34O)O2 (tested in a mixture with another compound)", "labelClass": "false (0)"}
{"compound": "O=C1c2ccccc2C(=O)N1SC(Cl)(Cl)Cl", "labelClass": "false (0)"}
{"compound": "O=C(O)COc1ccc(Cl)cc1Cl", "labelClass": "false (0)"}
{"compound": "O=[N+]([O-])/N=C1\\NCCN1Cc1ccc(Cl)nc1", "labelClass": "false (0)"}
{"compound": "CCC(C)(C)C(=O)OC1=C(c2ccc(Cl)cc2Cl)C(=O)OC12CCCCC2", "labelClass": "true (1)"}
{"compound": "COP(=S)(OC)Oc1ccc(SC)c(C)c1", "labelClass": "true (1)"}
{"compound": "CCc1ccc(C(=O)NN(C(=O)c2cc(C)cc(C)c2)C(C)(C)C)cc1", "labelClass": "false (0)"}
{"compound": "C#CCN1C(=O)COc2cc(F)c(N3C(=O)C4=C(CCCC4)C3=O)cc21", "labelClass": "false (0)"}
{"compound": "CCN(CC)C(=O)SCc1ccc(Cl)cc1", "labelClass": "false (0)"}
{"compound": "COc1nn(CSP(=S)(OC)OC)c(=O)s1", "labelClass": "true (1)"}
{"compound": "COP(=S)(OC)Oc1ccc([N+](=O)[O-])cc1", "labelClass": "true (1)"}
{"compound": "N#Cc1c(Cl)c(Cl)c(Cl)c(C#N)c1Cl", "labelClass": "false (0)"}
{"compound": "CC(C)(C)C(O)/C(=C\\c1ccc(Cl)cc1Cl)n1cncn1 (stereo not given)", "labelClass": "false (0)"}
{"compound": "CNC(=O)Oc1ccccc1OC(C)C", "labelClass": "false (0)"}

====

read-out: Vascular endothelial growth factor receptor 2 (Homo sapiens) (UniProt P35968); assay: BSK_4H_VEGFRII: BioMAP Diversity Plus: 4H Assay for Vascular endothelial growth factor receptor 2 (VEGFR2) Biomarker Activity (AID 2283031); conditions: primary human endothelial cells (HUVEC); actives raise or lower the signal;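 on AC50: cell-surface VEGFR2 protein level quantified by ELISA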
Active and inactive are the calls of the source. Rule for the calls: active = hit-call score of the fitted dose curve at least 0.9, where 1 is the maximum; inactive = score below 0.9.

{"compound": "CCc1ccc(C(=O)NN(C(=O)c2cc(C)cc(C)c2)C(C)(C)C)cc1", "AC50": "inactive"}
{"compound": "CCS(=O)(=O)c1cccnc1S(=O)(=O)NC(=O)Nc1nc(OC)cc(OC)n1", "AC50": "inactive"}
{"compound": "CCCN(CCC)c1c([N+](=O)[O-])cc(C(F)(F)F)cc1[N+](=O)[O-]", "AC50": "inactive"}
{"compound": "C#CCN1C(=O)COc2cc(F)c(N3C(=O)C4=C(CCCC4)C3=O)cc21", "AC50": "inactive"}
{"compound": "CCC(C)(NC(=O)c1cc(Cl)c(C)c(Cl)c1)C(=O)CCl (stereo not given)", "AC50": "20 µM (active)"}
{"compound": "O=[N+]([O-])c1c(Cl)c(Cl)c(Cl)c(Cl)c1Cl", "AC50": "inactive"}
{"compound": "O=S(=O)(O)C(F)(F)C(F)(F)C(F)(F)C(F)(F)C(F)(F)C(F)(F)C(F)(F)C(F)(F)F", "AC50": "inactive"}
{"compound": "Clc1ccccc1-c1nnc(-c2ccccc2Cl)nn1", "AC50": "inactive"}
{"compound": "O=C(NC(=O)c1c(F)cccc1F)Nc1ccc(OC(F)(F)C(F)OC(F)(F)F)c(Cl)c1 (stereo not given)", "AC50": "inactive"}
{"compound": "CC1(c2ccc(Oc3ccccc3)cc2)OC(=O)N(Nc2ccccc2)C1=O (stereo not given)", "AC50": "20 µM (active)"}

====

test: UKN2_HCS_IMR90_cell_viability: Viability Assessment in the University of Konstanz (UKN) Leist Lab Neural Crest Cell Migration Assay in human induced IMR90 Pluripotent Stem Cells (UKN2) (AID 2284233);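 further: viability of neural crest cells differentiated from IMR90 iPSC measured by calcein-AM fluorescence imaging; cells exposed to compound for 24 h after a 24 h migration phase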
The source made the active and inactive calls. How the source made its calls: active means hit-call score of the fitted dose curve at least 0.9, where 1 is the maximum; inactive means score below 0.9.
Possible outcomes: True (active), False (inactive)

{"compound": "O=C(O)COc1ccc(Cl)cc1Cl", "labelClass": "False"}
{"compound": "O=C(O)C(F)(F)C(F)(F)C(F)(F)C(F)(F)C(F)(F)C(F)(F)C(F)(F)F", "labelClass": "False"}
{"compound": "CC[C@H](C)[C@H]1O[C@]2(C=C[C@@H]1C)C[C@@H]1C[C@@H](C/C=C(\\C)[C@@H](O[C@H]3C[C@H](OC)[C@@H](O[C@H]4C[C@H](OC)[C@@H](O)[C@H](C)O4)[C@H](C)O3)[C@@H](C)/C=C/C=C3\\CO[C@@H]4[C@H](O)C(C)=C[C@@H](C(=O)O1)[C@]34O)O2 (tested in a mixture with another compound)", "labelClass": "True"}
{"compound": "O=S1OCC2C(CO1)C1(Cl)C(Cl)=C(Cl)C2(Cl)C1(Cl)Cl (stereo unspecified)", "labelClass": "True"}
{"compound": "ClC1C(Cl)C(Cl)C(Cl)C(Cl)C1Cl (stereo unspecified)", "labelClass": "False"}
{"compound": "O=[N+]([O-])/N=C1\\NCCN1Cc1ccc(Cl)nc1", "labelClass": "False"}
